# MEASUREMENT CONTEXT: in methyl acetate, 293.15 K
MEASUREMENT LABEL: solubility (mole fraction)

smiles_code=O=C(N[C@H](Cc1c[nH]c2ccccc12)C(=O)O)OCC1c2ccccc2-c2ccccc21 quantitative_result=0.0097

---

# MEASUREMENT CONTEXT: in n-propanol, 293.15 K
MEASUREMENT LABEL: solubility (mole fraction)

smiles_code=O=C(N[C@H](Cc1c[nH]c2ccccc12)C(=O)O)OCC1c2ccccc2-c2ccccc21 quantitative_result=0.00336

---

# MEASUREMENT CONTEXT: in acetonitrile, 303.15 K
MEASUREMENT LABEL: solubility (mole fraction)

smiles_code=O=C(N[C@H](Cc1c[nH]c2ccccc12)C(=O)O)OCC1c2ccccc2-c2ccccc21 result=0.00229

---

# MEASUREMENT CONTEXT: in isopropanol, 313.15 K
MEASUREMENT LABEL: solubility (mole fraction)

smiles_code=O=C(N[C@H](Cc1c[nH]c2ccccc12)C(=O)O)OCC1c2ccccc2-c2ccccc21 measurement_label="solubility (mole fraction)" quantitative_result=0.00545

---

# MEASUREMENT CONTEXT: in acetone, 308.15 K
MEASUREMENT LABEL: solubility (mole fraction)

smiles_code=O=C(N[C@H](Cc1c[nH]c2ccccc12)C(=O)O)OCC1c2ccccc2-c2ccccc21 result=0.0483

---

# MEASUREMENT CONTEXT: in n-propyl acetate, 323.15 K
MEASUREMENT LABEL: solubility (mole fraction)

smiles_code=O=C(N[C@H](Cc1c[nH]c2ccccc12)C(=O)O)OCC1c2ccccc2-c2ccccc21 result=0.00903

---

# MEASUREMENT CONTEXT: in n-propanol, 303.15 K
MEASUREMENT LABEL: solubility (mole fraction)

smiles_code=O=C(N[C@H](Cc1c[nH]c2ccccc12)C(=O)O)OCC1c2ccccc2-c2ccccc21 quantitative_result=0.00422

---

# MEASUREMENT CONTEXT: in methanol, 288.16 K
MEASUREMENT LABEL: solubility (mole fraction)

smiles_code=O=C(N[C@H](Cc1c[nH]c2ccccc12)C(=O)O)OCC1c2ccccc2-c2ccccc21 quantitative_result=0.00443

---

# MEASUREMENT CONTEXT: in acetone, 303.15 K
MEASUREMENT LABEL: solubility (mole fraction)

smiles_code=O=C(N[C@H](Cc1c[nH]c2ccccc12)C(=O)O)OCC1c2ccccc2-c2ccccc21 quantitative_result=0.0456

---

# MEASUREMENT CONTEXT: in ethanol, 323.15 K
MEASUREMENT LABEL: solubility (mole fraction)

smiles_code=O=C(N[C@H](Cc1c[nH]c2ccccc12)C(=O)O)OCC1c2ccccc2-c2ccccc21 measurement_label="solubility (mole fraction)" quantitative_result=0.0103

---

# MEASUREMENT CONTEXT: in n-butanol, 303.15 K
MEASUREMENT LABEL: solubility (mole fraction)

smiles_code=O=C(N[C@H](Cc1c[nH]c2ccccc12)C(=O)O)OCC1c2ccccc2-c2ccccc21 measurement_label="solubility (mole fraction)" result=0.00417

---

# MEASUREMENT CONTEXT: in isopropanol, 293.15 K
MEASUREMENT LABEL: solubility (mole fraction)

smiles_code=O=C(N[C@H](Cc1c[nH]c2ccccc12)C(=O)O)OCC1c2ccccc2-c2ccccc21 quantitative_result=0.00244
